Tested on: Calu-3
Assay Text: cell viability relative to DMSO; higher = less toxic
Assay Setup: 72 h; 10 nM
Observation Type: cell viability (%)
Kindly answer with a numeric value in %, unit omitted.

// cell viability lookup, compound = Cc1c(N(C)C)c(=O)n(-c2ccccc2)n1C , result: 109

// cell viability lookup, compound = O=C(O)CCc1c(C(=O)O)[nH]c2cc(Cl)cc(Cl)c12 , result: 96.3

// cell viability lookup, compound = CCCCCOc1ccc(-c2cc(-c3ccc(C(=O)N[C@H]4C[C@@H](O)[C@@H](O)NC(=O)[C@@H]5[C@@H](O)[C@@H](C)CN5C(=O)[C@H]([C@H](O)CC(N)=O)NC(=O)[C@H]([C@H](O)[C@@H](O)c5ccc(O)c(OS(=O)(=O)O)c5)NC(=O)[C@@H]5C[C@@H](O)CN5C(=O)[C@H]([C@@H](C)O)NC4=O)cc3)no2)cc1 , result: 108

---

Give cell viability for every item shown.
System: U2OS
Assay Text: cell viability relative to DMSO; higher = less toxic
Assay Setup: 72 h; 10000 nM

// cell viability lookup, molecule = CCC(=O)O[C@@](Cc1ccccc1)(c1ccccc1)[C@@H](C)CN(C)C , result: 100%

// cell viability lookup, molecule = O=C(O)c1cccnc1 , result: 102%

// cell viability lookup, molecule = CCOC(=O)Nc1nc2ccccc2[nH]1 , result: 99.7%

// cell viability lookup, molecule = CCO[C@H]1O[C@@H]2O[C@@]3(C)CC[C@H]4[C@H](C)CC[C@@H]([C@H]1C)[C@@]24OO3 , result: 79.1%

// cell viability lookup, molecule = CCCCCCCCCCCCOS(=O)(=O)O [dodecyl-sulfate] , result: 100%

---

System: A549-ACE2
Assay Text: drug-induced phospholipidosis relative to tamoxifen; higher = more phospholipidosis
Assay Setup: 0.833333 µM; 24 h
Observation Type: drug-induced phospholipidosis (%)
Kindly answer with a numeric value in %, unit omitted.

// drug-induced phospholipidosis lookup, compound = c1cc(CN2CCCCC2)cc(OCCCNc2nc3ccccc3s2)c1 [zolantidine] , result: 2.56

// drug-induced phospholipidosis lookup, compound = Cc1ccccc1-n1c(Cn2ncc3c(N)ncnc32)nc2cccc(C)c2c1=O [PIK-293] , result: 16.4

// drug-induced phospholipidosis lookup, compound = COc1cc(C[C@H]2c3cc(OC)c(OC)cc3CCN2C)c(Oc2cc3c(cc2OC)-c2c(OC)c(OC)cc4c2[C@H](C3)N(C)CC4)cc1OC [thaliblastine] , result: 20.6

// drug-induced phospholipidosis lookup, compound = CCc1cc2cc(OC)c(OC)cc2c(Cc2ccccc2)n1 [moxaverine] , result: 1.68

---

Test system: Calu-3
Assay Text: cell viability relative to DMSO; higher = less toxic
Assay Setup: 72 h; 1 nM
Counter-ions that a name gives are not always drawn.
Give cell viability for every item shown.
Kindly answer with a numeric value in %, unit omitted.

// cell viability lookup, compound = OC[C@H]1O[C@@H](O[C@@H]2[C@@H](CO)OC(O)(CO)[C@H]2O)[C@H](O)[C@@H](O)[C@H]1O (mixture of isomers) [lactulose] , result: 107

// cell viability lookup, compound = CO[C@H]1/C=C/O[C@@]2(C)Oc3c(C)c(O)c4c(O)c(c(/C=N/N5CCN(C)CC5)c(O)c4c3C2=O)NC(=O)/C(C)=C\C=C\[C@H](C)[C@H](O)[C@@H](C)[C@@H](O)[C@@H](C)[C@H](OC(C)=O)[C@@H]1C [rifampin] , result: 99.5

// cell viability lookup, compound = CN1[C@@H]2C[C@@H](OC(=O)[C@H](CO)c3ccccc3)C[C@H]1[C@@H]1O[C@@H]12 [SCOPOLAMINE HYDROBROMIDE] , result: 96.6

// cell viability lookup, compound = O=C(NCCCNc1nc(Nc2cccc(NC(=O)N3CCCC3)c2)ncc1I)c1cccs1 [BX-795] , result: 93.4
